Read-out: UDP glucuronosyltransferase (UGT1A1), UGT1A1 (gene 54658)
methodNotes: LTEA_HepaRG_UGT1A1: Life Technologies and Expression Analysis (LTEA) Assay for UDP glucuronosyltransferase (UGT1A1) using HepaRG (AID 2283538)
statedConditions: mRNA level, 48 h; actives raise or lower the signal
Active and inactive are the calls of the source. Rule for the calls: active = hit-call score of the fitted dose curve at least 0.9, where 1 is the maximum; inactive = score below 0.9.
Give one outcome, nothing more. List: label 1 = active, label 0 = inactive

INSERT INTO results (smilesrepresentation, class) VALUES
  ('N#Cc1cccnc1', 'label 0'),
  ('CN(C)C(=S)S', 'label 0');

Prompt: For CC(C)(C)c1ccccc1O , what call appears in the results of this test?
Completion: label 1

Prompt: # lookup: test call for Oc1c(Cl)cc(Cl)cc1Cl
Completion: label 0

Prompt: Hi team, can someone confirm the assay call for Clc1cccc(Cl)c1Cl ?
Completion: label 0

Prompt: Can you look up the reported call for Oc1cc(Cl)c(Cl)cc1Cl for me?
Completion: label 0

Prompt: How was OCCN(CCO)CCO classified in this test?
Completion: label 0

Prompt: // param item: O=C(O)C1(c2ccc3c(c2)OC[C@H](Cc2ccc(-c4ccccc4)cc2)[C@H]3O)CCCC1 ; yields the recorded call
Completion: label 0

Prompt: Which outcome did this test record for the molecule CC(C)O.CC(C)O.OCCN(CCO)CCO.OCCN(CCO)CCO.[Ti] ?
Completion: label 0

----------
Read-out: Vascular cell adhesion molecule 1 (VCAM1), VCAM1 (gene 7412)
methodNotes: BSK_hDFCGF_VCAM1: BioMAP Diversity Plus: hDFCGF Assay for Vascular cell adhesion molecule 1 (VCAM1) Biomarker Activity (AID 2283065)
statedConditions: primary human foreskin fibroblasts; actives raise or lower the signal
Experimental: BSK_hDFCGF is a cell-based, multiplexed-readout assay that uses foreskin fibroblast, a human skin primary cell, with measurements taken at 24 hours after chemical dosing in a 96-well plate.BSK_hDFCGF_VCAM1 is an assay component measured in the BSK_hDFCGF assay. It measures VCAM-1 antibody related to regulation of gene expression using ELISA technology.Data from the assay component BSK_hDFCGF_VCAM1 was analyzed into 1 assay endpoint. […]
Activity calls are given as the source filed them. Rule for the calls: active = hit-call score of the fitted dose curve at least 0.9, where 1 is the maximum; inactive = score below 0.9.
Hi! Could you answer with just one of these? y (active), n (inactive)

// below: answered compounds
INSERT INTO measurements (smilesrepresentation, class) VALUES
  ('Nc1c(Oc2ccccc2)cc(O)c2c1C(=O)c1ccccc1C2=O', 'y'),
  ('CCOP(=S)(OCC)OP(=S)(OCC)OCC', 'y');

Prompt: Assay outcome for Cc1cccc(OP(=O)(Oc2cccc(C)c2)Oc2cccc(C)c2)c1 : what was it?
Completion: n

----------
Read-out: Ezrin (EZR), EZR (gene 7430)
methodNotes: LTEA_HepaRG_EZR: Life Technologies and Expression Analysis (LTEA) Assay for Ezrin (EZR) using HepaRG (AID 2283491)
statedConditions: mRNA level, 48 h; actives raise or lower the signal
The source made the active and inactive calls. Rule for the calls: active = hit-call score of the fitted dose curve at least 0.9, where 1 is the maximum; inactive = score below 0.9.
Can you answer with just one of these options? true (1) (active), false (0) (inactive)

INSERT INTO measurements (smilesrepresentation, class) VALUES
  ('Oc1c(Cl)cc(Cl)cc1Cl', 'false (0)');

We now examine a further compound.
Prompt: GET /call?item= O=C(N[C@H]1CN2CCC1CC2)c1ccc2c(c1)OCCO2 returns the recorded outcome of this test.
Completion: false (0)

Values compiled from PubChem BioAssay (EPA / NIEHS).
